B1: PBXIP1 (parent)
chain: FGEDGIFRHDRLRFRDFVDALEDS

variants of: B1; assay: protein stability index of a GFP-peptide fusion (GPS, HEK-293T) (PSI 1-6); higher = more stable; settings: c terminus: a fixed tail appended;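 also: lentivirally expressed fusions sorted by FACS into six bins by GFP to DsRed ratio, PSI derived from sequencing read proportions per bin multiplied by bin number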
Record form. Attribute: protein stability index. Fill in for each entry.
Numbers only.

Below are worked cases with known answers.
{"columns": ["record_sequence", "protein stability index"],
 "data": [
  ["FGEDGICRHDRLRFRDFVDALEDS [F7C]", 2.95],
  ["FFEDGIFRHDRLRFRDFVDALEDS [G2F]", 2.75],
  ["FGKDGIFRHDRLRFRDFVDALEDS [E3K]", 2.52],
  ["FGEDGIMRHDRLRFRDFVDALEDS [F7M]", 4.07],
  ["FGEDGIFRHDRLRHRDFVDALEDS [F14H]", 2.87]
]}

Please state protein stability index for every variant in the list that follows.
1. FKEDGIFRHDRLRFRDFVDALEDS [G2K]
2. FGEDGIPRHDRLRFRDFVDALEDS [F7P]
3. FGYDGIFRHDRLRFRDFVDALEDS [E3Y]
4. FGEDGKFRHDRLRFRDFVDALEDS [I6K]

2.81
3.88
3.04
2.7

Please state protein stability index for every variant in the list that follows.
1. FGEDGIFIHDRLRFRDFVDALEDS [R8I]
2. FGEDGVFRHDRLRFRDFVDALEDS [I6V]

1: 3.09; 2: 2.76
